- ASSAY TARGET: T1, EsCas13d, nuclease-dead (Eubacterium siraeum, UniProt B0MS50, R295A;H300A;R849A;H854A)
- T1 sequence: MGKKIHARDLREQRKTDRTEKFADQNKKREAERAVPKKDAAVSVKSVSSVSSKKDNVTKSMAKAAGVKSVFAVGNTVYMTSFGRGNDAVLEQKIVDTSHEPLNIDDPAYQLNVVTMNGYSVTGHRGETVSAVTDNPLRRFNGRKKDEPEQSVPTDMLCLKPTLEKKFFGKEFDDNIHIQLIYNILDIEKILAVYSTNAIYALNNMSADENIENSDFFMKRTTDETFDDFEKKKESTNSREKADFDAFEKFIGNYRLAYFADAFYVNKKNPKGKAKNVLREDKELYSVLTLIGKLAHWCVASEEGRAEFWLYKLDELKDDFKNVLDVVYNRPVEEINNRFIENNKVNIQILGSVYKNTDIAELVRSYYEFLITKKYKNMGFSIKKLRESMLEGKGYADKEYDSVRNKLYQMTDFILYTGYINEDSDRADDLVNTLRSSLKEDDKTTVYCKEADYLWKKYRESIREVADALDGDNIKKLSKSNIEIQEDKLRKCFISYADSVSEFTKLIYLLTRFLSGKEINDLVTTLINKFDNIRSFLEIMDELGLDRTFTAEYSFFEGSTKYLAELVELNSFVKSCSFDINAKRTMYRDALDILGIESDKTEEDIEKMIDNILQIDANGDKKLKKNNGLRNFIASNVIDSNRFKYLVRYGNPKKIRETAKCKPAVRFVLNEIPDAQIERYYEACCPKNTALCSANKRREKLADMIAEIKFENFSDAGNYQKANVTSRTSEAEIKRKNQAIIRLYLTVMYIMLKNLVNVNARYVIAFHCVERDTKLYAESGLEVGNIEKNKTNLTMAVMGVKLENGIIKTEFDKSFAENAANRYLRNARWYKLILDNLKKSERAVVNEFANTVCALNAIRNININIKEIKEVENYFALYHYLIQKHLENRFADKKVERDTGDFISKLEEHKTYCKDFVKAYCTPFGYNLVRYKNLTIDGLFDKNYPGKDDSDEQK
- ASSAY REMARKS: crRNA (strand 1, pre-loaded); Mg2+; 40 mM Tris-HCl pH 7.5, 150 mM NaCl, 6 mM MgCl2, 1 mM DTT, 0.1% Tween-20, 0.2 mg/ml BSA; 25 C; 10 min per concentration, then washed
- CONDITION NOTES: tags: His6-TwinStrep-SUMO cleaved; N-terminal SNAP kept (SNAP-Surface 488); label: 3' end held by stalled T7 RNA polymerase
Would you kindly list pKd for each of these binders?
One number for each entry, as −log10 of the molar value.

Known results for binders:
BINDER	RESULT VALUE
target 1 C7U,G12C (mixed) RNA 1: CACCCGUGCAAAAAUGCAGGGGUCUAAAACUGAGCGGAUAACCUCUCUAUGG RNA 2: GGGAAUGGAUCCACAUCUACGAAUUCGUACCAUAGAGAGCUUAUUCGCUCACCGAGAUCGGAAGAGCACACGU	8.01
target 2 MT 5'PFS UGA 3'PFS UCA (mixed) RNA 1: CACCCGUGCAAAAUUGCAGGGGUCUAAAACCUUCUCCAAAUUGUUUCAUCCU RNA 2: GGGAAUGGAUCCACAUCUACGAAUUCUGAAGGAUGAAACAAUUUGGAGAAGUCAAGAUCGGAAGAGCACACGU	7.85
target 2 MT 5'PFS CAA 3'PFS CCA (mixed) RNA 1: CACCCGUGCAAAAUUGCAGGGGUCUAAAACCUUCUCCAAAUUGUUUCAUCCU RNA 2: GGGAAUGGAUCCACAUCUACGAAUUCCAAAGGAUGAAACAAUUUGGAGAAGCCAAGAUCGGAAGAGCACACGU	8.00

Hi, could you look up pKd for each item in my list?
1. target 2 MT 5'PFS GAG 3'PFS CGC (mixed) RNA 1: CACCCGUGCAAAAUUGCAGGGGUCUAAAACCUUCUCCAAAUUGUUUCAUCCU RNA 2: GGGAAUGGAUCCACAUCUACGAAUUCGAGAGGAUGAAACAAUUUGGAGAAGCGCAGAUCGGAAGAGCACACGU
2. target 1 U10A (mixed) RNA 1: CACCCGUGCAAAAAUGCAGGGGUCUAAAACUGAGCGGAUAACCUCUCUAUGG RNA 2: GGGAAUGGAUCCACAUCUACGAAUUCGUACCAUAGAGAGGUAAUCCGCUCACCGAGAUCGGAAGAGCACACGU
3. target 1 insA 3' of 19,insG 3' of 19 (mixed) RNA 1: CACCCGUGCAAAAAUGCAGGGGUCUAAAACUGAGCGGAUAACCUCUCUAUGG RNA 2: GGGAAUGGAUCCACAUCUACGAAUUCGUACCAUAGAGAGAGGUUAUCCGCUCACCGAGAUCGGAAGAGCACACGU
4. target 2 MT 5'PFS CAA 3'PFS CCG (mixed) RNA 1: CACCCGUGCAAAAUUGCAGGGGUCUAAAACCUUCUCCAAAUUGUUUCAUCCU RNA 2: GGGAAUGGAUCCACAUCUACGAAUUCCAAAGGAUGAAACAAUUUGGAGAAGCCGAGAUCGGAAGAGCACACGU

Result ::
[8.19, 8.03, 8.06, 8.14]
